assay: Solubility of dichroic dye compound in cyclopentanone (absorbance method); format: physicochemical; details: in cyclopentanone
ATTRIBUTE MEASURED: Solubility (wt %)
Please respond with the number in wt % and leave the unit unwritten.

C=CC(=O)OCCOc1ccc(/N=N/c2ccc(/N=N/c3ccc(/N=N/c4ccc(OCCOC(=O)C=C)cc4)cc3C)cc2)cc1 [D9]: 4.3
C=CC(=O)OCCCCOc1ccc(/N=N/c2ccc(/N=N/c3ccc(/N=N/c4ccc(OCCCCOC(=O)C=C)cc4)cc3C)cc2)cc1 [D1]: 4.5

Sample C=CC(=O)OCCCCOc1ccc(N=Nc2ccc(N=Nc3ccc(N=Nc4ccc(N=Nc5ccc(N=Nc6ccc(OCCCCOC(=O)C=C)c(C(F)(F)F)c6)c(C)c5)cc4)c(C)c3)cc2)cc1C(F)(F)F [D23] — what was its Solubility (wt %)?
1.2
